biological target: T1, His6-PP1α_(7-330) (UniProt P62136 7-330); assay: SPR; His6-PP1 captured on a Ni-NTA sensorchip (NiHC200M), I3 variants injected; 25 °C; 20 mM Tris pH 8.0, 500 mM NaCl, 1 mM MnCl2, 0.5 mM TCEP, 0.05% Tween-20; one-to-one one state or one-to-one two state model; conditions: both partners purified
T1 construct: Protein Phosphatase 1 alpha (PP1α), residues 7-330; Captured by its His6 tag on the Ni-NTA chip for SPR; Two Mn2+ at the active site when made in E. coli with MnCl2; also called PP1_(7-330); Protein Phosphatase 1; source: bacterial expression (E. coli) as previously described, purified (Ni-NTA, SEC)
T1 sequence (P62136 7-330): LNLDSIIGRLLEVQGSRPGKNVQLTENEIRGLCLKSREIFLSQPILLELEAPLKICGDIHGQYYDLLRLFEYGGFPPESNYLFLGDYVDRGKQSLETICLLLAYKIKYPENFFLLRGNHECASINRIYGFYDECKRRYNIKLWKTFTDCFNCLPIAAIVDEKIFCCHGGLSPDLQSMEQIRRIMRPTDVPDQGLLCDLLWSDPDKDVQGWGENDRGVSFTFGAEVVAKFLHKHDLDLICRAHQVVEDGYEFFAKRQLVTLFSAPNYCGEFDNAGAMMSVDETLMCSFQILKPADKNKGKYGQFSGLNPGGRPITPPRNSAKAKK
reported-property: Kd (nM)
# unit: nM | format: bare number

The following binders have reported results that may help.
Lookup: Fill blank: measured Kd of the binder SLTIKLRKRKPEKKVEWTSDTVDNEHMGRRSSKCCCAAEKPR (domain or fragment, human, UniProt O60927 27-68, looked up, PPP1R11), human, residues 27-68; also called I3_(27-68) IY; source: E. coli BL21 (DE3), purified (Ni-NTA, TEV, heat 95 °C, SEC); not shown: His6, N-terminal, cleaved; MBP, N-terminal, cleaved) [IY: I3_(27-68) I63A/Y64A] is ____.
Found: 15.6

Lookup: Fill blank: measured Kd of the binder SLTIKLRKRKPEKKVEWTSDTVDNEHMGRRSSKCCCIYEKPR (domain or fragment, human, UniProt O60927 27-68, looked up, PPP1R11), human, residues 27-68; also called WT I3_(27-68); source: E. coli BL21 (DE3), purified (Ni-NTA, TEV, heat 95 °C, SEC); not shown: His6, N-terminal, cleaved; MBP, N-terminal, cleaved) [I3_(27-68) (I3 PP1 interaction domain)] is ____.
Found: 9.3

Lookup: Fill blank: measured Kd of the binder SLTIKLRKRKPEKKVEWTSDTVDNEHMGRRSSKSCCIYEKPR (domain or fragment, human, UniProt O60927 27-68, looked up, PPP1R11), human, residues 27-68; source: E. coli BL21 (DE3), purified (Ni-NTA, TEV, heat 95 °C, SEC); not shown: His6, N-terminal, cleaved; MBP, N-terminal, cleaved) [SCC: I3_(27-68) C60S] is ____.
Found: 21.7

Lookup: Fill blank: measured Kd of the binder SLTIKLRKRKPEKKVEWTSDTVDNEHMGRRSSKCCSIYEKPR (domain or fragment, human, UniProt O60927 27-68, looked up, PPP1R11), human, residues 27-68; source: E. coli BL21 (DE3), purified (Ni-NTA, TEV, heat 95 °C, SEC); not shown: His6, N-terminal, cleaved; MBP, N-terminal, cleaved) [CCS: I3_(27-68) C62S] is ____.
Found: 20.6

Lookup: Fill blank: measured Kd of the binder SLTIKLRKRKPEKKVEWTSDTVDNEHMGRRSSKSSSIYEKPR (domain or fragment, human, UniProt O60927 27-68, looked up, PPP1R11), human, residues 27-68; also called I3_(27-68)SSS; I3_(27-68) SSS; source: E. coli BL21 (DE3), purified (Ni-NTA, TEV, heat 95 °C, SEC); not shown: His6, N-terminal, cleaved; MBP, N-terminal, cleaved) [SSS: I3_(27-68) C60S/C61S/C62S] is ____.
Found: 412

---
Lookup: Fill blank: measured Kd of the binder SLTIKLRKRKPEKKVEWTSDTVDNEHMGRRSSK (domain or fragment, human, UniProt O60927 27-59, looked up, PPP1R11), human, residues 27-59; also called I3 CCC_(deletion) variant; I3_(27-68) CCC_(deletion); source: E. coli BL21 (DE3), purified (Ni-NTA, TEV, heat 95 °C, SEC); not shown: His6, N-terminal, cleaved; MBP, N-terminal, cleaved) [CCC_(deletion): I3_(27-59) (Δ60-68)] is ____.
Found: 376
